# assay-name: in vivo
# assay-context: rat
reported-metric: CL renal
Answer format: value, then unit.

Query: Can you share its CL renal? I mean this compound: CCOc1ccc(Cc2cc([C@@H]3O[C@H](CO)[C@@H](O)[C@H](O)[C@H]3O)ccc2Cl)cc1 [DAPAGLIFLOZIN]
Result: 4.8 mL/h/kg

* * *

# assay-name: Volume of distribution in human
reported-metric: Vd (L/kg)
Dear colleague, please return just the value in L/kg, with no unit written.

Query: Can you share its Vd? I mean this compound: COc1ccc(-n2nc(C(N)=O)c3c2C(=O)N(c2ccc(N4CCCCC4=O)cc2)CC3)cc1 [APIXABAN]
Result: 0.3
